SYSTEM UNDER TEST: human estradiol (E) receptor (Homo sapiens, UniProt P03372)
Construct: present in human breast tumor cells (MCF-7 cells); endogenous in cells; host or cells: MCF-7 human breast tumor cells
Sequence (P03372 1-595): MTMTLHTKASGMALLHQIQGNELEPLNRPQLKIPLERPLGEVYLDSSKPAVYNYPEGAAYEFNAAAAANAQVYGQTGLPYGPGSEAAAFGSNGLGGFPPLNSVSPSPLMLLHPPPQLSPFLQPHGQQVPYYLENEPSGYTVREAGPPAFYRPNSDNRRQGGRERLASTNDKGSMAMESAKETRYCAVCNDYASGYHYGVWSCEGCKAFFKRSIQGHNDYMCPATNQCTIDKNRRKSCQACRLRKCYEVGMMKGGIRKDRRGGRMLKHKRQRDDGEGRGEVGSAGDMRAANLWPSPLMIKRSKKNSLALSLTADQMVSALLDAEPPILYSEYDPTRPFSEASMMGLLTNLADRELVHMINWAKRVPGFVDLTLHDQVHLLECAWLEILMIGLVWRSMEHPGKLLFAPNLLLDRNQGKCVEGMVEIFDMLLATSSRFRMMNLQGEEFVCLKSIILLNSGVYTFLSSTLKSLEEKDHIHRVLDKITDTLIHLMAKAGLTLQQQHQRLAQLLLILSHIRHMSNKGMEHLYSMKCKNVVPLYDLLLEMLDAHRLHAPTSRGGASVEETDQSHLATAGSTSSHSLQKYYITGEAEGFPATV
Assay type: binding
# key: entry, value: Relative binding affinity to the human estradiol (E) receptor
Just the number please, in %, no unit attached.

CCC[C@@H]1Cc2cc(O)ccc2[C@H]2CC[C@@]3(C)[C@@H](C[C@H]4C[C@@H](C)C[C@]43O)[C@H]12 [Code 38514]; 11
CC[C@H]1C[C@@]2(C)[C@@H](C[C@H]3CCCC[C@]32O)[C@@H]2CCc3cc(O)ccc3[C@@H]12 [Code 37862]; 96

Now for the molecule whose Relative binding affinity to the human estradiol (E) receptor we want.
GET /values?readout=Relative binding affinity to the human estradiol (E) receptor&item= CCC[C@@H]1Cc2cc(O)ccc2[C@H]2CC[C@@]3(C)[C@@H](C[C@H]4C[C@H](C)C[C@]43O)[C@H]12 [Code 38481]
23
